Test: gradient 5% acetonitrile 3 min, to 50% in 2 min, to 85% in 15 min, held 3 min, 100 µL/min
Details: column: Zorbax Extend-C18 2.1 x 50 mm; eluents: water / acetonitrile, 0.1% formic acid
Use Y when the recorded RP-LC retention time is no lower than 900 s; use N when it is lower.

>  <COMPOUND>
COc1ccc(CNC(=O)C2(C)CCN(C(=O)Nc3ccc(C)c(Cl)c3)CC2)cc1

>  <ANSWER LABEL>
Y

$$$$
>  <COMPOUND>
Cc1nc(-c2ccccc2)sc1C(=O)N1CCC(CC(=O)N2CCOCC2)CC1

>  <ANSWER LABEL>
N

$$$$
>  <COMPOUND>
O=C(NCc1noc(C2CCCC2)n1)c1ccccc1

>  <ANSWER LABEL>
N

$$$$
>  <COMPOUND>
Cc1cc(-n2c(C)nc3ccccc3c2=O)ccc1NC(=O)Cc1cccs1

>  <ANSWER LABEL>
N

$$$$
>  <COMPOUND>
COc1ccc(CNC(=O)C2CCCN(c3nccnc3Sc3ccccc3)C2)c(OC)c1 (stereo unspecified)

>  <ANSWER LABEL>
Y

$$$$
>  <COMPOUND>
O=C(N[C@H]1C[C@@H]2C[C@H]1N(C(=O)COc1cccc(Cl)c1)C2)c1ccccc1

>  <ANSWER LABEL>
N

$$$$
>  <COMPOUND>
CCCC[C@@]1(C2CCCC2)Cc2cc(OCC(=O)O)c(Cl)c(Cl)c2C1=O

>  <ANSWER LABEL>
Y

$$$$
>  <COMPOUND>
Cc1c(C2CCN(C(=O)NCCc3ccccc3)CC2)noc1N

>  <ANSWER LABEL>
N

$$$$
>  <COMPOUND>
O=C(Cc1nc(-c2ccccn2)n[nH]1)Nc1ccc(F)cc1F

>  <ANSWER LABEL>
N

$$$$
